METHOD_SUMMARY: rescue of L929 cells from zVAD death – primary screen (AID 1377)
MEASUREMENT_SETUP: L929 zVAD necroptosis rescue, ATP luminescence, 24 h, at 10 µM; with zVAD 60 µM unless noted
Among all 220,000 compounds or so, about 830 (0.38%) were called active.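 The calls were made as follows: active = activation, scaled between plate controls, above about 75% (limit read from the data); inactive = activation under that limit.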 What follows is part of a selection rich in actives, with near analogues and random picks from the rest.
One label from this list, please: active, inactive

[[record]]
molecule = "O=C(O)CCn1c(O)c(C=C2N=c3ccccc3=N2)sc1=S"
qualitative_label = "inactive"

[[record]]
molecule = "COCCN(C(=O)c1ccccc1F)c1c(N)n(Cc2ccccc2)c(=O)[nH]c1=O"
qualitative_label = "inactive"

[[record]]
molecule = "CCOc1ccc(Nc2nc(Cl)nc(N3CCN(c4ccc(OC)cc4)CC3)n2)cc1"
qualitative_label = "inactive"


Input line: What outcome does the record of this test show for C[C@@H]1C[C@@H]2O[C@H]2/C=C\C=C\C(=O)Cc2c(Cl)c(O)cc(O)c2C(=O)O1 ?
Output line: active

Input line: What outcome does the record of this test show for CC(NC(=S)NC1CCCCC1)C(c1ccccc1)N1CCOCC1 (stereo not drawn) ?
Output line: inactive

Input line: What outcome does the record of this test show for CCCN=C1NC(=O)C(CC(=O)NCCc2ccc(OC)c(OC)c2)S1 (stereo not drawn) ?
Output line: inactive

Input line: What outcome does the record of this test show for Nc1ccc(Nc2ccccc2)cc1 ?
Output line: inactive

Input line: What outcome does the record of this test show for Cc1ccc(Nc2ccccc2N)cc1 ?
Output line: active

Input line: What outcome does the record of this test show for Cc1ccc(Nc2nnc(SCc3ccccc3)s2)cc1 ?
Output line: inactive
